Numbers sourced from PubChem BioAssay (NCI).

# System: SK-OV-3 ovarian
# test_description: NCI tumour cell line growth inhibition, 48 h
endpoint_name: TGI

Here's what some known entries look like.
[
  {
    "compound": "CCOc1ccc(N=Nc2c(-c3ccccc3)nn(C(=O)CC(=O)Nc3cccc(C)c3)c2-c2ccccc2)cc1",
    "TGI": "> 100 µM"
  },
  {
    "compound": "O=C(O)CP(=O)(c1ccccc1)c1ccccc1.O=C(O)CP(=O)(c1ccccc1)c1ccccc1.[Cd]",
    "TGI": "44.5 µM"
  },
  {
    "compound": "Nc1nc(Cl)nc2c1ncn2C1CCC(COP(=O)(O)OP(=O)(O)OP(=O)(O)O)O1 (centres undefined)",
    "TGI": "> 100 µM"
  },
  {
    "compound": "C[C@]12CC/C(=N\\OC(=O)Nc3ccccc3)C=C1CC[C@@H]1C2CC[C@@]2(C)C1CC[C@@H]2OC(=O)Nc1ccccc1 (some centres undefined)",
    "TGI": "> 100 µM"
  },
  {
    "compound": "O=C1C(Cl)=C(Nc2cccc(O)c2)C(=O)N1c1ccc(Cl)cc1Cl",
    "TGI": "> 100 µM"
  },
  {
    "compound": "O=C1CSC(c2ccccc2[N+](=O)[O-])N1c1ccc(-n2c(-c3ccccc3)nc3ccccc3c2=O)cc1 (centres undefined)",
    "TGI": "28.3 µM"
  },
  {
    "compound": "COC(=O)C1=C(C)N(NC(=O)c2cccc(Cl)c2)C(C)(O)C12CCOC2=O (centres undefined)",
    "TGI": "> 100 µM"
  },
  {
    "compound": "Nc1ccn(CC(CO)CC(c2ccccc2)P(=O)(O)O)c(=O)n1 (centres undefined)",
    "TGI": "> 100 µM"
  }
]

With those in mind, consider the next compound.
Request: Recorded TGI of CC(C)N(C(=O)C12C3C4C5C3C1(C#N)C5C42)C(C)C (centres undefined) , please.
Response: > 100 µM
